Target: ZFP SBS#1355 (synthetic)
Sequence (chain, as listed by the source): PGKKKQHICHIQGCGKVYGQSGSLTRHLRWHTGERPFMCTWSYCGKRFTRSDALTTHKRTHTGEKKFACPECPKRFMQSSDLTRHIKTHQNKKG
Assay: EMSA
Conditions: tags: MBP fusion
quantityName: Kd (nM)
A number alone suffices; assume nM.

Prompt: Requested read-out: Kd. Entry: GCTTTGGCA (dsDNA) DNA 1: GCTTTGGCA DNA 2: TGCCAAAGC
Completion: 0.172
